- experimentalDetails: Single-dose pharmacokinetics in dogs (plasma, UHPLC/MS/MS)
- Type: in vivo, Beagle dogs
- measurementParameters: both sexes, beagle, dog, plasma, po, 49.6 mg/kg; read-out: MRT0-∞
measureName: MRT inf (h)
Use h as the unit, but write only the number.

Prompt: Return reported MRT inf; argument: C[C@@H]1O[C@@H](O[C@H]2[C@H](Oc3cc(O)c4c(c3)O[C@H](c3ccc(O)cc3)CC4=O)O[C@H](CO)[C@@H](O)[C@@H]2O)[C@H](O)[C@H](O)[C@H]1O [naringin, Naringin]
Response: 2.73

* * *

- experimentalDetails: Single-dose pharmacokinetics in rats (plasma, UHPLC/MS/MS)
- Type: in vivo, Sprague Dawley rats
- measurementParameters: male, Sprague Dawley, rat, plasma, po, 168 mg/kg
- Excerpt: Sixty healthy adult Sprague Dawley rats (180-220 g, half male and female) were purchased from the Guangdong Medical Laboratory Animal Center (Guangzhou, Guangdong, China). Thirty Beagle dogs (10-14 kg, half male and female) were purchased from the […] […] The compounds were detected by multiple reaction monitoring in the negative ion electrospray mode. […] All pharmacokinetic and excretion parameters were expressed as mean ± standard deviation (SD). […]
measureName: half-life (min)
Use min as the unit, but write only the number.

Prompt: Return reported half-life; argument: C[C@@H]1O[C@@H](O[C@H]2[C@H](Oc3cc(O)c4c(c3)O[C@H](c3ccc(O)cc3)CC4=O)O[C@H](CO)[C@@H](O)[C@@H]2O)[C@H](O)[C@H](O)[C@H]1O [naringin, Naringin]
Response: 37.5

* * *

- experimentalDetails: Single-dose pharmacokinetics in rats (plasma, UHPLC/MS/MS)
- Assay type: in vivo, Sprague Dawley rats
- measurementParameters: both sexes, Sprague Dawley, rat, plasma, po
measureName: half-life

Prompt: Return reported half-life; argument: "C[C@@H]1O[C@@H](O[C@H]2[C@H](Oc3cc(O)c4c(c3)O[C@H](c3ccc(O)cc3)CC4=O)O[C@H](CO)[C@@H](O)[C@@H]2O)[C@H](O)[C@H](O)[C@H]1O"
Response: < 1 h

* * *

- experimentalDetails: Single ascending dose and food-effect pharmacokinetics of naringin tablets in healthy humans
- Type: in vivo, human
- measurementParameters: both sexes, human, plasma, po, 160 mg, naringin 160 mg p.o. single dose
measureName: AUC(0-inf)
Report field: quantity (unit follows the number).

Prompt: Return reported AUC(0-inf); argument: C[C@@H]1O[C@@H](O[C@H]2[C@H](Oc3cc(O)c4c(c3)O[C@H](c3ccc(O)cc3)CC4=O)O[C@H](CO)[C@@H](O)[C@@H]2O)[C@H](O)[C@H](O)[C@H]1O [naringin, Naringin]
Response: 0.0224 µg·h/mL

* * *

- experimentalDetails: Single ascending dose and food-effect pharmacokinetics of naringin tablets in healthy humans
- Type: in vivo, human
- measurementParameters: female, human, plasma, po, 80 mg, naringin 80 mg p.o. single dose
measureName: AUC(0-t) (ng·h/mL)
Use ng·h/mL as the unit, but write only the number.

Prompt: Return reported AUC(0-t); argument: C[C@@H]1O[C@@H](O[C@H]2[C@H](Oc3cc(O)c4c(c3)O[C@H](c3ccc(O)cc3)CC4=O)O[C@H](CO)[C@@H](O)[C@@H]2O)[C@H](O)[C@H](O)[C@H]1O [naringin, Naringin]
Response: 10.2

* * *

- experimentalDetails: Single ascending dose and food-effect pharmacokinetics of naringin tablets in healthy humans
- Format: in vivo, human
- measurementParameters: both sexes, human, plasma, po, 320 mg, naringin 320 mg p.o. single dose
measureName: Cmax (ng/mL)
Use ng/mL as the unit, but write only the number.

Prompt: Return reported Cmax; argument: C[C@@H]1O[C@@H](O[C@H]2[C@H](Oc3cc(O)c4c(c3)O[C@H](c3ccc(O)cc3)CC4=O)O[C@H](CO)[C@@H](O)[C@@H]2O)[C@H](O)[C@H](O)[C@H]1O [naringin, Naringin]
Response: 10.9

* * *

- experimentalDetails: Single-dose pharmacokinetics in dogs (plasma, UHPLC/MS/MS)
- Format: in vivo, Beagle dogs
- measurementParameters: both sexes, Beagle, dog, plasma, po, 12.4 mg/kg; read-out: MRT0-∞
measureName: MRT inf (h)
Use h as the unit, but write only the number.

Prompt: Return reported MRT inf; argument: "C[C@@H]1O[C@@H](O[C@H]2[C@H](Oc3cc(O)c4c(c3)O[C@H](c3ccc(O)cc3)CC4=O)O[C@H](CO)[C@@H](O)[C@@H]2O)[C@H](O)[C@H](O)[C@H]1O"
Response: 2.17

* * *

- experimentalDetails: Single-dose pharmacokinetics in dogs (plasma, UHPLC/MS/MS)
- Assay type: in vivo, Beagle dogs
- measurementParameters: female, Beagle, dog, plasma, po, 49.6 mg/kg
measureName: AUC(0-inf) (ng·h/mL)
Use ng·h/mL as the unit, but write only the number.

Prompt: Return reported AUC(0-inf); argument: "C[C@@H]1O[C@@H](O[C@H]2[C@H](Oc3cc(O)c4c(c3)O[C@H](c3ccc(O)cc3)CC4=O)O[C@H](CO)[C@@H](O)[C@@H]2O)[C@H](O)[C@H](O)[C@H]1O"
Response: 262

* * *

- experimentalDetails: Single-dose pharmacokinetics in dogs (plasma, UHPLC/MS/MS)
- Format: in vivo, Beagle dogs
- measurementParameters: both sexes, Beagle, dog, plasma, oral; naringenin in dogs, studies overall
measureName: half-life
Report field: quantity (unit follows the number).

Prompt: Return reported half-life; argument: "O=C1C[C@@H](c2ccc(O)cc2)Oc2cc(O)cc(O)c21"
Response: 2.03 h

* * *

- experimentalDetails: Single ascending dose and food-effect pharmacokinetics of naringin tablets in healthy humans
- Format: in vivo, human
- measurementParameters: both sexes, human, plasma, po, 40 mg, naringin 40 mg p.o. single dose, human; read-out: MRT0-∞
- Method: Participants were healthy males and females, 18 to 40 years old, ≥50 kg weight, 19 to 25 kg m^2 body mass index. […] The optimal volume and activity in unit volume of enzyme solution [0.2 M acetic acid/water solution: 0.2 M ammonium acetate/water solution, 15:35 (v/v)] were determined through a pretest of the enzyme (rat plasma, 10 μl, 10 U μl^-1; dog plasma, 10 μl, 10 U μl^-1; human plasma, 20 μl, 20 U μl^-1; human urine, 10 μl, 10 U μl^-1). […]
measureName: MRT inf (h)
Use h as the unit, but write only the number.

Prompt: Return reported MRT inf; argument: C[C@@H]1O[C@@H](O[C@H]2[C@H](Oc3cc(O)c4c(c3)O[C@H](c3ccc(O)cc3)CC4=O)O[C@H](CO)[C@@H](O)[C@@H]2O)[C@H](O)[C@H](O)[C@H]1O [naringin, Naringin]
Response: 4.9

* * *

- experimentalDetails: Single ascending dose and food-effect pharmacokinetics of naringin tablets in healthy humans
- Assay type: in vivo, human
- measurementParameters: both sexes, human, plasma, po, 160 mg, naringin 160 mg (high-fat diet) p.o. single dose
measureName: AUC(0-t)
Report field: quantity (unit follows the number).

Prompt: Return reported AUC(0-t); argument: "C[C@@H]1O[C@@H](O[C@H]2[C@H](Oc3cc(O)c4c(c3)O[C@H](c3ccc(O)cc3)CC4=O)O[C@H](CO)[C@@H](O)[C@@H]2O)[C@H](O)[C@H](O)[C@H]1O"
Response: 12.8 ng·h/mL

* * *

- experimentalDetails: Single-dose pharmacokinetics in rats (plasma, UHPLC/MS/MS)
- Assay type: in vivo, Sprague Dawley rats
- measurementParameters: both sexes, Sprague Dawley, rat, plasma, oral; naringenin in rats, studies overall
measureName: half-life (h)
Use h as the unit, but write only the number.

Prompt: Return reported half-life; argument: "O=C1C[C@@H](c2ccc(O)cc2)Oc2cc(O)cc(O)c21"
Response: 2.31

* * *

- experimentalDetails: Single-dose pharmacokinetics in rats (plasma, UHPLC/MS/MS)
- Format: in vivo, Sprague Dawley rats
- measurementParameters: female, Sprague Dawley, rat, plasma, po, 10.5 mg/kg
measureName: half-life
Report field: quantity (unit follows the number).

Prompt: Return reported half-life; argument: "C[C@@H]1O[C@@H](O[C@H]2[C@H](Oc3cc(O)c4c(c3)O[C@H](c3ccc(O)cc3)CC4=O)O[C@H](CO)[C@@H](O)[C@@H]2O)[C@H](O)[C@H](O)[C@H]1O"
Response: 27.9 min

* * *

- experimentalDetails: Single-dose pharmacokinetics in dogs (plasma, UHPLC/MS/MS)
- Type: in vivo, Beagle dogs
- measurementParameters: female, Beagle, dog, plasma, po, 12.4 mg/kg
measureName: AUC(0-t) (ng·h/mL)
Use ng·h/mL as the unit, but write only the number.

Prompt: Return reported AUC(0-t); argument: "C[C@@H]1O[C@@H](O[C@H]2[C@H](Oc3cc(O)c4c(c3)O[C@H](c3ccc(O)cc3)CC4=O)O[C@H](CO)[C@@H](O)[C@@H]2O)[C@H](O)[C@H](O)[C@H]1O"
Response: 115

Data provenance: paper PMC7118210
